Test system: MS2 coat protein
Procedure Text: apparent KD of MS2 coat protein; designed switch direction (-1 OFF switch, 1 ON switch): -1; higher = weaker reporter binding
Study Conditions: input ligand: microRNA oligo, concentration not stated
Would you please tag the item 1 when its apparent KD of MS2 coat protein is 50 nM or above, and -1 when it is below?

>  <Construct Sequence>
ACAUGUAUUGCAGGAUAUGGGACACAUGAGGAUCACCCAUGUGACUACAUGUCAUACCACGCGUCUCAGAAGGGUAUGUACAUG [Ex NG2 #39] (Eterna round: R96, puzzle: Exclusion NG 2)

>  <Category Label>
-1

$$$$
>  <Construct Sequence>
GCGUAGUAUGUAGGAUAUCGGUCAGUUUCUGAUCGAGAAGGACAUGAGGAUCACCCAUGUAAAACGUCCGGUUUCUGGAUACGC [JL ENG1 3.57] (Eterna round: R96, puzzle: Exclusion NG 1)

>  <Category Label>
-1

$$$$
>  <Construct Sequence>
UUUAAUUUAAUUAAGAUCACAUGAGGAUCACCCAUGUAUAUAUAGGAUAUCAGCUCGUUUAGAGCUGAGAAGGAUAUAUACAUA [ExNG3/4-A2] (Eterna round: R96, puzzle: Exclusion NG 3)

>  <Category Label>
-1

$$$$
>  <Construct Sequence>
CGAUGCUCGAGUCGACAUGAGGAUCACCCAUGUAGAGUUAGUGAGGAUAUCGGAGACACAUAGUAUGAGAAGGCGCGAACCUGA [Ex NG3 #17] (Eterna round: R96, puzzle: Exclusion NG 3)

>  <Category Label>
-1

$$$$
>  <Construct Sequence>
AAAAAGGCAGGAUAUGCAUACACACAAAAAAAAAAACUGGGACAUGAGGAUCACCCAUGUAGAAGGGCCAAAAA [Dora Explored 8 - Jieux - Exclusion 2] (Eterna round: R96, puzzle: Exclusion 2)

>  <Category Label>
1

$$$$
>  <Construct Sequence>
UGUUGUCGCGUAGGAUAUGAGGAUCACCCAUAUAGAGGAUAUGAAAAGAAGGCUCUGAGGAUUACCCAGAAGGACGGGACAACU [pwkr exNG2 2xF5 2xFMN.22] (Eterna round: R96, puzzle: Exclusion NG 2)

>  <Category Label>
1

$$$$
>  <Construct Sequence>
UCAAGCUUUAAGCGUGUGAACAUGAGGAUCACCCAUGUAUUUUAGGUAAUAAGUUCAAUUAUGUAUUCUCGUCUUAU [JR_SWV3TOV1_Sub095] (Eterna round: R96, puzzle: Sensor v3, turn-off variant 1)

>  <Category Label>
-1

$$$$
>  <Construct Sequence>
UGAACCCAUGUUAGGAUAUCAGGCCGAGGAAGUUCUGAGAAGGGACAUGAGGAUCACCCAUGUAUAAAAGAAAC [Veontiinge] (Eterna round: R96, puzzle: Brourd's mod of Exclusion 4)

>  <Category Label>
-1

$$$$
